# STUDY_TARGET: β1 adrenergic receptor (Rattus norvegicus, UniProt P18090)
# Construct: expressed in transfected cells; host or cells: HEK293T
# Sequence (P18090 whole entry): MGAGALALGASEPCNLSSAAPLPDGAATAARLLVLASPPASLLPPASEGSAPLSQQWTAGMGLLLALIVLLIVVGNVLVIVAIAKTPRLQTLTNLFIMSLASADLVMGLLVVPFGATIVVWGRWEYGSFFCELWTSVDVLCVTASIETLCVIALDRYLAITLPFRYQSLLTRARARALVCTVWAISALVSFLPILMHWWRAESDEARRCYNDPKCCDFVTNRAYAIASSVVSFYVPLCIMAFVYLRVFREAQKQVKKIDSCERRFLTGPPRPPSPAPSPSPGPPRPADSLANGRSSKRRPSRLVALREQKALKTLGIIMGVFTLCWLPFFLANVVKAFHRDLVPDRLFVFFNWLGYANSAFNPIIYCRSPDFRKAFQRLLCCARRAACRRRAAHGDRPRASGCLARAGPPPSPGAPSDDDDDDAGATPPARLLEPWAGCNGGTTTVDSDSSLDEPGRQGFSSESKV
# MEASUREMENT_NOTES: Patch-clamp agonist concentration dependence in Gi/olf94 chimeric G protein expressing cells (present invention)
# Assay type: cell-based
# COND: change in current density, Gi/olf94 cells; read-out: half maximal effective concentration (EC50)
ENDPOINT_NAME: pEC50
# pEC50: negative log10 of molar concentration; output just the value

[in] Please list pEC50 recorded for the compound CC(CCc1ccc(O)cc1)NCCc1ccc(O)c(O)c1 (stereo not shown)
[out] 7.30
